STUDY_TARGET: T1, full length human DLL4 (human, UniProt Q9NR61 27-685)
T1 construct: whole, on cells; also called native DLL4 expressed in HEK293 cells
T1 sequence (Q9NR61 27-685): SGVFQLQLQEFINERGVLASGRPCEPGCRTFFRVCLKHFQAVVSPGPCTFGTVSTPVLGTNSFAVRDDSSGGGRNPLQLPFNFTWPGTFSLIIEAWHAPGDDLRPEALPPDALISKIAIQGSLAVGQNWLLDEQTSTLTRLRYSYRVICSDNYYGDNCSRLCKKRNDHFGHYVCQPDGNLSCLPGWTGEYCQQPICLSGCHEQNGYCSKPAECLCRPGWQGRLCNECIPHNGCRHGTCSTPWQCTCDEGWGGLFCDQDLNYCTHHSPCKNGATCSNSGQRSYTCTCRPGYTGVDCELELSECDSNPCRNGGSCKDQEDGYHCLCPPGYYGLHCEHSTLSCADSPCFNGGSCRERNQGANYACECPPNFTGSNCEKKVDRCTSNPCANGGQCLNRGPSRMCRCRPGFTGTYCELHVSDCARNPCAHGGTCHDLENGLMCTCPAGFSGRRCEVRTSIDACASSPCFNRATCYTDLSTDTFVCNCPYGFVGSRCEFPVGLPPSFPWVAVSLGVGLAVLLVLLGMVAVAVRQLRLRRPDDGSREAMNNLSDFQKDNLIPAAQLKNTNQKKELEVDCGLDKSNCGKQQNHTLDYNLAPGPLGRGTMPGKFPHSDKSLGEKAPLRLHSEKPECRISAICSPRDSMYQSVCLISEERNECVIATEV
METHOD_SUMMARY: FACS competition vs Notch1/Fc, HEK293 cells with human DLL4
IC50 reference
OBSERVABLE: IC50

>  <BINDER>
2H10 IgG2 VH M93V/VL C33S (antibody, V domains shown, IgG2) VH: QVQLVESGGGVVQPGRSLRLSCAASGFTFSRHGMHWVRQAPGKGLEWVAVVWFDGSNIYYADSVKGRFTISRDNSKNTLYLQMNSLRAEDTAVYYCARDSRIAAADYWGQGTLVTVSS VL: SYELTQPPSVSVSPGQTVSITCSGDKLGDKYVSWYQQKPGQSPVLVIYQESKRPSGIPERFSGSSSGNTATLTISGTQAMDEADYYCQTWDSSLVVFGGGTKLTVL

>  <OBSERVED_RESULT>
0.138 µg/mL

$$$$
>  <BINDER>
2H10 IgG2 VH wt/VL C33R (antibody, V domains shown, IgG2) VH: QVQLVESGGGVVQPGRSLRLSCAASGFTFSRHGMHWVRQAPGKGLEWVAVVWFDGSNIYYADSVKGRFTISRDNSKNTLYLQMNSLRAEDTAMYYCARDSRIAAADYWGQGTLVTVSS VL: SYELTQPPSVSVSPGQTVSITCSGDKLGDKYVRWYQQKPGQSPVLVIYQESKRPSGIPERFSGSSSGNTATLTISGTQAMDEADYYCQTWDSSLVVFGGGTKLTVL

>  <OBSERVED_RESULT>
2.97 µg/mL

$$$$
>  <BINDER>
2H10 IgG2 VH wt/VL C33G (antibody, V domains shown, IgG2) VH: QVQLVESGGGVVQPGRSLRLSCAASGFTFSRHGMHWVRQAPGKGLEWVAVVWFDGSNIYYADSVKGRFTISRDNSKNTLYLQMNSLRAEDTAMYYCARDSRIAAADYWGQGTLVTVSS VL: SYELTQPPSVSVSPGQTVSITCSGDKLGDKYVGWYQQKPGQSPVLVIYQESKRPSGIPERFSGSSSGNTATLTISGTQAMDEADYYCQTWDSSLVVFGGGTKLTVL

>  <OBSERVED_RESULT>
0.314 µg/mL

$$$$
>  <BINDER>
9G8 IgG2 VH wt/VL S7P (antibody, V domains shown, IgG2) VH: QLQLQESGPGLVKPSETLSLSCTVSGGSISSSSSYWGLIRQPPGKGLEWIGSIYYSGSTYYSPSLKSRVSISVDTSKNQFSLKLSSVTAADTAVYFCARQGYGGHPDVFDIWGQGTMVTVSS VL: SSELTQPPSVSVSPGQTARITCSGDKLGDVYVCWYQQKTGQSPVLVIYEDTKRPSGIPERFSGSNSGNTATLTISGTQVMDEADYYCQAWDSTTAVIFGGGTKLTVL

>  <OBSERVED_RESULT>
0.181 µg/mL

$$$$
